This listing pairs compounds with measured growth inhibition.
experiment: NCI Yeast Anticancer Drug Screen. Data for the rad50 strain (AID 155);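 also: 0% = growth of vehicle-only cultures of the same strain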; conditions: S. cerevisiae rad50 strain growth inhibition; at 50.0 µM; stronger effect = higher value
The panel holds about 79,000 compounds, 15% with a hit somewhere; the sample as a whole holds those more often. Active and inactive are the calls of the source. Rule as the data show it: active = growth inhibition above about 70%; inactive = the rest.

These solved cases illustrate the format of a correct answer.
CCOC(=O)C1CCC(=O)O1 (stereo unspecified); -14% (inactive)
COc1ccc2nc3c([N+](=O)[O-])ccc(NCCCN(C)C)c3c(N)c2c1; 90.3% (active)
CN(Cc1cc(Br)cc(Br)c1O)Cc1c[nH]c2ccccc12; 68.1% (inactive)
O=C(CC1C=Cc2ccccc2N1C(=O)c1ccccc1)c1ccccc1 (stereo unspecified); 83% (active)
COc1ccc(C(=O)C(CN2CCOCC2)CN2CCOCC2)cc1; 96.2% (active)

# context switch: different compound, same growth inhibition
Sample c1nc(N2CCOCC2)c2[nH]cnc2n1 — what was its growth inhibition? 22.1% (inactive)

====

experiment: NCI Yeast Anticancer Drug Screen. Data for the mec2-1 strain (AID 157); details: S. cerevisiae mec2-1 strain, at 50.0 µM (retest, dose inferred, filed as 5.0), stronger effect = higher value
This is part of a sample that, as a whole, favours compounds with a hit. Of some 79,000 tested, about 15% had one in any assay.
Outcome: t for growth inhibition of at least 30%; f for anything lower.

# count of solved cases: 5
O=C(NN1C(=O)C(Cl)C1c1ccc(O)cc1)c1ccccc1O (stereo not drawn); t
S=c1sc2c(s1)SCCOCCOCCOCCS2; f
COc1ccc2sc3c(C)ccc(NCC4CCCN5CCCCC45)c3c(=O)c2c1 (stereo not drawn); t
COc1cccc2c1C(=O)c1c(O)c3c(c(O)c1C2=O)C[C@@](O)(/C(C)=N/NC(=O)c1ccc(Cl)c(Cl)c1)C[C@@H]3OC1CC(N)C(O)C(C)O1 (stereo partly drawn); t
CC(=O)Nc1ccc(NC(=S)Nc2ccc(NC(C)=O)cc2)cc1; t

For this compound, is measured growth inhibition 30% or higher? Cc1noc(NS(=O)(=O)c2ccc(NC(=S)/N=C/c3c(O)[nH]c(=O)[nH]c3=O)cc2)c1C f

For this compound, is measured growth inhibition 30% or higher? Oc1ccc2c(c1)OCC1c3ccccc3OC21 (stereo not drawn) t

For this compound, is measured growth inhibition 30% or higher? CCCC(=O)Oc1ccc(OCc2ccccc2)cc1 t

====

test: NCI Yeast Anticancer Drug Screen. Data for the sgs1 mgt1 strain (AID 161);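 also: 0% = growth of cultures given vehicle only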; settings: S. cerevisiae sgs1 mgt1 strain, at 50.0 µM
Compounds without any hit were thinned out: in the full panel of roughly 79,000, 15% have a hit. Activity calls are given as the source filed them. No stated cut-off is given here; in the data, active means growth inhibition above about 70%; inactive means the rest.
Entry note: the call must match one of active, inactive

CCOC(=O)c1ccc2c3c([nH]c2c1C)-c1ccccc1CC3; active
O=C(CNc1cccc(Cl)c1)Nn1c(-c2ccccc2)nc2ccccc2c1=O; active
ClCc1c(-c2ccccc2)oc(-c2ccccc2)c1CCl; inactive
O=C(O)c1c(Br)c(Br)c(Br)c(Br)c1-c1c2ccc(=O)cc-2oc2cc(O)ccc12; active
CC(=O)OC1COC(N2C(=O)C(=O)c3cc(Br)ccc32)C(OC(C)=O)C1OC(C)=O (stereo not drawn); inactive

Lab log entry: CC(=O)OC1=Cc2ccccc2C(c2ccccc2)c2ccccc21 (stereo not drawn) — outcome as called in the assay? inactive

Lab log entry: CCc1cccc(C(C)(C)C)c1NC(=S)/N=C/C(C(=O)c1ccccc1)=C(\O)c1ccccc1 — outcome as called in the assay? inactive

Lab log entry: Cc1ccc(NC(=O)CC2SC(=Nc3ccc(Cl)cc3)NC2=O)cc1C (stereo not drawn) — outcome as called in the assay? active

Lab log entry: CCOC(=O)C1CCC(=O)O1 (stereo not drawn) — outcome as called in the assay? inactive

Lab log entry: ClC1=C(Cl)C(Cl)(C(Cl)(Cl)Cl)C(Cl)=C1Cl — outcome as called in the assay? active

Lab log entry: CCCCCOCC(=O)OC — outcome as called in the assay? inactive

Lab log entry: NNc1c(Cl)cc(Cl)cc1Cl — outcome as called in the assay? active

Lab log entry: Fc1cccc(C2SCc3nc4ccccc4n32)c1F (stereo not drawn) — outcome as called in the assay? active

Lab log entry: O=C(O)c1nc2cc(C(F)(F)F)ccc2nc1Nc1ccc(Cl)c(Cl)c1 — outcome as called in the assay? inactive

Lab log entry: O=C1OS(=O)(=O)c2cc3c(cc21)C1C(C2C3C3(Cl)C(Cl)=C(Cl)C2(Cl)C3(Cl)Cl)C2(Cl)C(Cl)=C(Cl)C1(Cl)C2(Cl)Cl (stereo not drawn) — outcome as called in the assay? active

Lab log entry: COc1ccc(C(c2ccc(C(C)C)cc(OC)c2=O)c2ccc(C(C)C)cc(OC)c2=O)cc1 — outcome as called in the assay? inactive

Lab log entry: O/N=C1/CCCC/C1=C/c1ccc(Cl)cc1 — outcome as called in the assay? active

Lab log entry: O=C(CSc1nccc(=O)[nH]1)c1ccccc1 — outcome as called in the assay? inactive

Lab log entry: CC(=O)N(O)c1ccc2c(c1)Cc1cc(F)ccc1-2 — outcome as called in the assay? active

Lab log entry: CCC(O)C(O)(c1ccccc1)c1nc2ccccc2s1 (stereo not drawn) — outcome as called in the assay? inactive

Lab log entry: Clc1ccc(C2=CC(c3ccccc3)N3C(=N[C@H]4CCCC[C@@H]43)N2)cc1 (stereo partly drawn) — outcome as called in the assay? active

Lab log entry: CCc1ccc(/C=C/c2ccc([N+](=O)[O-])cc2)nc1 — outcome as called in the assay? inactive

Lab log entry: C/C(CCC(=O)O)=N/Nc1ccc(C(=O)O)cc1 — outcome as called in the assay? inactive
